- assayComment: Caspase-3/7 induction in HepG2 cells by small molecules, qHTS assay (AID 1346978); also: nearly all actives have a fitted effect of over 15% in size
- conditionDescription: HepG2 caspase-3/7 activation, Caspase-Glo luminescence, 17 h; series mostly up to 92.4 µM
- Description: National Center for Advancing Translational Sciences [NCATS] NIH Chemical Genomics Center [NCGC] U.S. Environmental Protection Agency [EPA] National Institutes of Environmental Health Sciences [NIEHS] National Toxicology Program [NTP] Assay overview: Apoptosis is a process of programmed cell death and plays a central role in the development of multicellular organisms. […]
Inconclusive results are not listed. Active and inactive are the calls of the source. Calls follow the shape of the dose curve; as a rule, active = well fitted activation curve with a large enough effect in the repeat runs; inconclusive = weak or mixed curves; inactive = flat fitted curve, though single readings scatter.
metricName: outcome

compound | outcome
Nc1ccc(S(=O)(=O)Nc2nccs2)cc1 | inactive
CCCC(CCC)C(=O)O | inactive
O=C(O)c1cc(N=Nc2ccc(S(=O)(=O)Nc3ccccn3)cc2)ccc1O | inactive
CCC1(c2ccccc2)C(=O)NCNC1=O | inactive
Nc1ccc(O)c(C(=O)O)c1 | inactive

Batch: outcome for all items listed.
1. N=C(N)c1ccc(OCCCCCOc2ccc(C(=N)N)cc2)cc1
2. O=C(C1CCCCC1)N1CC(=O)N2CCc3ccccc3C2C1 (configuration not stated)

a:
1. inactive
2. inactive

====

- assayComment: qHTS RealTime-Glo MT Cell Viability Assay in HepG2 cells - 0 hour (AID 1224889); also: nearly all actives have a fitted effect of over 50% in size
- conditionDescription: RealTime-Glo luminescence; series mostly up to 76.8 µM
Inconclusive results are not listed. Calls of active or inactive are those of the source. Calls come from the whole dose curve; as a rule, active = well fitted cell-killing curve with a large enough effect in the repeat runs; inconclusive = weak or mixed curves, or effect the other way; inactive = flat fitted curve, though single readings scatter.
metricName: outcome

Answered examples (5):
compound | outcome
CCC1(c2ccccc2)C(=O)NCNC1=O | inactive
O=C(O)CS | inactive
CCCC(O)C(CC)CO (stereo not given) | inactive
Cn1c(=O)c2[nH]cnc2n(C)c1=O | inactive
NC(=O)NC1NC(=O)NC1=O (stereo not given) | inactive

Batch: outcome for all items listed.
1. C/C=C/c1ccc(OC)cc1
2. NC(=O)c1cnccn1
3. CC(C)(Oc1ccc(C2CC2(Cl)Cl)cc1)C(=O)O (stereo not given)
4. CCCNC(=O)NS(=O)(=O)c1ccc(Cl)cc1
5. Nc1ccn([C@H]2CC[C@@H](CO)O2)c(=O)n1
6. CNC[C@H](O)c1cccc(O)c1
7. Cc1ccccc1C(OCCN(C)C)c1ccccc1 (stereo not given)

a:
["inactive", "inactive", "inactive", "inactive", "inactive", "inactive", "inactive"]

Batch: outcome for all items listed.
1. c1ccc2[nH]ccc2c1
2. Cc1cn([C@H]2C[C@H](N=[N+]=[N-])[C@@H](CO)O2)c(=O)[nH]c1=O
3. O=S(=O)(O)NC1CCCCC1
4. CC(O)CO (stereo not given)
5. O=c1ccc2ccccc2o1
6. O=S(=O)(O)c1ccc2cc(O)ccc2c1
7. O=C(O)C(=O)O
8. Cc1cc(=O)[nH]c(=S)[nH]1

a:
["inactive", "inactive", "inactive", "inactive", "inactive", "inactive", "inactive", "inactive"]

Batch: outcome for all items listed.
1. OCCc1ccccc1
2. NS(=O)(=O)c1cc(C(=O)O)c(NCc2ccco2)cc1Cl

a:
inactive
inactive

Batch: outcome for all items listed.
1. CCCCOC(=O)CC(CC(=O)OCCCC)(OC(C)=O)C(=O)OCCCC
2. CC(O)C(=O)O (stereo not given)
3. Cc1ccc(O)cc1

a:
["inactive", "inactive", "inactive"]
